The measurements presented in this section are drawn from ChEMBL document CHEMBL4706768.

# system-under-test: Hepatocyte growth factor receptor (Homo sapiens)
# assay: Inhibition of c-Met (unknown origin) using poly Glu-Tyr as substrate preincubated for 10 mins followed by ATP addition by phosphoenolpyruvate/pyruvate kinase/lactate dehydrogenase coupled radiometric assay
endpoint: pKi
Numbers only, as −log10 of the molar value.

molecule	value-observed
C[C@@H](c1ccc2ncccc2c1)c1nnc2sc(-c3cnn(C)c3)nn12	7.70
C[C@@H](c1ccc2ncccc2c1)c1nnc2sc(Nc3cnn(C)c3)nn12	7.70
Cn1cc(Nc2nn3c(C(F)(F)c4ccc5ncccc5c4)nnc3s2)cn1	7.68

(Q) For CC(c1ccc2ncccc2c1)c1nnc2sc(-c3cnn(C)c3)nn12 (racemic) , what is its reported pKi?
(A) 7.30

---

# assay: Inhibition of PI3K (unknown origin)
# Parameters: species or system Homo sapiens
endpoint: Ki

(Q) For `C[C@@H](c1ccc2ncccc2c1)c1nnc2sc(-c3cnn(C)c3)nn12` , what is its reported Ki?
(A) > 4 µM

---

# system-under-test: Hepatocyte growth factor receptor (Homo sapiens, UniProt P08581)
# Sequence (P08581 whole entry): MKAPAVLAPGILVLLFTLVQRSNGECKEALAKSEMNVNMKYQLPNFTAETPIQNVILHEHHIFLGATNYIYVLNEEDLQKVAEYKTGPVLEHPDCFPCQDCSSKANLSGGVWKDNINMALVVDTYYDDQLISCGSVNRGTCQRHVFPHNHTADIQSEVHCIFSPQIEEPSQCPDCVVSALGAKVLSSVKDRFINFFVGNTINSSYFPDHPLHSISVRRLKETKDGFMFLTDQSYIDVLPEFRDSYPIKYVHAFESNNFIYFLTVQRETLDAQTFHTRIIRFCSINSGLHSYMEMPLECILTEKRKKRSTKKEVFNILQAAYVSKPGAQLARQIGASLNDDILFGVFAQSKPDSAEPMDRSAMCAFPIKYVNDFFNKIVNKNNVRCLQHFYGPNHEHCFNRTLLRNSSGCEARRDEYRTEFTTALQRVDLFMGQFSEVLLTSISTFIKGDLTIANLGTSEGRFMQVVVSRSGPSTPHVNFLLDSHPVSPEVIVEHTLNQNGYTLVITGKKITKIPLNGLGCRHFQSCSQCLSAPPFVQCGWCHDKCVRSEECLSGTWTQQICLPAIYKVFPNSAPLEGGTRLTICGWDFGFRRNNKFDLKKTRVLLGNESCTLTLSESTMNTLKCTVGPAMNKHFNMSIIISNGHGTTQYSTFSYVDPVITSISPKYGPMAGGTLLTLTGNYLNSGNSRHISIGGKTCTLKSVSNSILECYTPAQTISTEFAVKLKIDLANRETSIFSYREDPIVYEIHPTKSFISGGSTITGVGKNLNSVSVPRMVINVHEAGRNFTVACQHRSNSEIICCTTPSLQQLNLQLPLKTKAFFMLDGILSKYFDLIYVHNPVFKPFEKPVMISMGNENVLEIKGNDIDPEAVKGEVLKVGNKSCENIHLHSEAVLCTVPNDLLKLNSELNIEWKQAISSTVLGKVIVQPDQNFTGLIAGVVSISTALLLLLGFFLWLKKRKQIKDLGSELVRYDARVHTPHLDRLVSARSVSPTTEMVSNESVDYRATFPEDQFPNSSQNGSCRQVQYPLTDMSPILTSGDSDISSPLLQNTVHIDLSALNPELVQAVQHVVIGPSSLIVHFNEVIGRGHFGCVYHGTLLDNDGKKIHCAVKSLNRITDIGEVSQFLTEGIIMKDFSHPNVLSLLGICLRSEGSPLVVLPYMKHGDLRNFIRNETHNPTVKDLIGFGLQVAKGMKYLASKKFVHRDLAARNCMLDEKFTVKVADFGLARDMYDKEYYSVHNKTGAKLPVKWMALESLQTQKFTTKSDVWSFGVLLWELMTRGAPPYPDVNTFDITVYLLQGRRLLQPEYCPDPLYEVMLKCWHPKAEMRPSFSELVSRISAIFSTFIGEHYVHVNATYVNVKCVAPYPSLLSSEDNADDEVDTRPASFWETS
# assay: Inhibition of c-MET in human SNU-5 cells measured after 6 hrs by steady-glo luciferase reporter gene assay
pIC50: −log10 of the molar value.
Assign Met to entries whose pIC50 meets or exceeds 8; assign Not met to the rest.

Some solved cases for reference:
compound	system-under-test	answer-label
C[C@@H](c1ccc2ncccc2c1)c1nnc2sc(Nc3cnn(C)c3)nn12	Hepatocyte growth factor receptor (Homo sapiens, UniProt P08581)	Met
C[C@H](c1ccc2ncccc2c1)c1nnc2sc(-c3cnn(C)c3)nn12	Hepatocyte growth factor receptor (Homo sapiens, UniProt P08581)	Not met
C[C@@H](c1ccc2ncccc2c1)c1nnc2sc(-c3cnn(C)c3)nn12	Hepatocyte growth factor receptor (Homo sapiens, UniProt P08581)	Not met
Cn1cc(Nc2nn3c(C(F)(F)c4ccc5ncccc5c4)nnc3s2)cn1	Hepatocyte growth factor receptor (Homo sapiens, UniProt P08581)	Met
CC(c1ccc2ncccc2c1)c1nnc2sc(-c3cnn(C)c3)nn12 (racemic)	Hepatocyte growth factor receptor (Homo sapiens, UniProt P08581)	Not met

(Q) Would you say `Cc1nn(C)cc1-c1nn2c([C@@H](C)c3ccc4ncccc4c3)nnc2s1` shows pIC50 at minimum 8?
(A) Met

(Q) Subsequent entry: `Cc1nn(C)cc1-c1nn2c([C@H](C)c3ccc4ncccc4c3)nnc2s1`
(A) Met

---

# assay: Stability in rat hepatocytes after 30 mins
# Format: ADME, cell-based, Hepatocyte
# conditions-used: read-out: Stabilty
endpoint: remaining at 0.5 h (%)
One number for each entry, in %.

Look over these answered cases.
mol	remaining at 0.5 h (%)
Oc1ccc(Cc2nnc3sc(Nc4cccc(Cl)c4)nn23)cc1F	56
Clc1cccc(Nc2nn3c(Cc4ccc5c(c4)OCO5)nnc3s2)c1	64
Oc1cccc(Cc2nnc3sc(Nc4cccc(Cl)c4)nn23)c1	55

// batch mode: one remaining at 0.5 h value per listed entry
1. Clc1cccc(Nc2nn3c(Cc4ccc5ncccc5c4)nnc3s2)c1
2. Oc1ccc(Cc2nnc3sc(Nc4cccc(Cl)c4)nn23)cc1Cl
3. Clc1cccc(Nc2nn3c(Cn4ccc5ncccc54)nnc3s2)c1

(A)
[45, 63, 60]

---

# assay: Unbound intrinsic clearance in human hepatocytes assessed per million cells
# Format: ADME, cell-based, Hepatocyte
endpoint: CL free
Please answer in the form of a number followed by its unit of measurement.

Look over these answered cases.
compound	CL free
C[C@H](c1ccc2ncccc2c1)c1nnc2sc(-c3cnn(C)c3)nn12	5.8 µL/min
Cn1cc(-c2nn3c(Cc4ccc5ncccc5c4)nnc3s2)cn1	4.8 µL/min
C[C@@H](c1ccc2ncccc2c1)c1nnc2sc(-c3cnn(C)c3)nn12	5.1 µL/min

// next item, CL free requested
(Q) For CC(c1ccc2ncccc2c1)c1nnc2sc(-c3cnn(C)c3)nn12 (racemic) , what is its reported CL free?
(A) 3.2 µL/min
